Cited source for all entries: the NIST ThermoML archive (doi:10.1021/je060139a)

- assay summary: xn = mol fraction of the nth substance listed
- settings: 298.18 K, Wilhelmy plate method, x1 = 0.4
experimental readout: surface tension liquid-gas (mN/m)

Lookup: I am curious: what surface tension liquid-gas value has been reported for CCOC(=O)CC(C)=O [ethyl 3-oxobutanoate] + CCO ?
Found: 26.36

Lookup: I am curious: what surface tension liquid-gas value has been reported for CCOC(=O)CC(C)C [ethyl 3-methylbutanoate] + CCO ?
Found: 22.91

Lookup: I am curious: what surface tension liquid-gas value has been reported for CCC(=O)OCc1ccccc1 [benzyl propanoate] + CCO ?
Found: 27.31

Lookup: I am curious: what surface tension liquid-gas value has been reported for CCOC(=O)c1ccccc1O [ethyl 2-hydroxybenzoate] + CCO ?
Found: 27.1

Lookup: I am curious: what surface tension liquid-gas value has been reported for COC(=O)c1ccccc1 [methyl benzoate] + CCO ?
Found: 27.9

Lookup: I am curious: what surface tension liquid-gas value has been reported for CC(=O)OCc1ccccc1 [benzyl ethanoate] + CCO ?
Found: 27.69

###

- assay summary: xn = mol fraction of the nth substance listed
- settings: 318.15 K, Wilhelmy plate method, x1 = 0.9
experimental readout: surface tension liquid-gas (mN/m)

Lookup: I am curious: what surface tension liquid-gas value has been reported for CCC(=O)OCc1ccccc1 [benzyl propanoate] + CCO ?
Found: 30.9

Lookup: I am curious: what surface tension liquid-gas value has been reported for CCOC(=O)CC(C)C [ethyl 3-methylbutanoate] + CCO ?
Found: 21.5

Lookup: I am curious: what surface tension liquid-gas value has been reported for CC(=O)OCc1ccccc1 [benzyl ethanoate] + CCO ?
Found: 32.45

Lookup: I am curious: what surface tension liquid-gas value has been reported for CCOC(=O)c1ccccc1O [ethyl 2-hydroxybenzoate] + CCO ?
Found: 32.18

Lookup: I am curious: what surface tension liquid-gas value has been reported for COC(=O)c1ccccc1 [methyl benzoate] + CCO ?
Found: 32.7

Lookup: I am curious: what surface tension liquid-gas value has been reported for CCOC(=O)CC(C)=O [ethyl 3-oxobutanoate] + CCO ?
Found: 29.14

###

- settings: 298.15 K; 101.33 kPa; Liquid
experimental readout: mass density (kg/m3)

Lookup: I am curious: what mass density value has been reported for CCO [ethanol] ?
Found: 785

Lookup: I am curious: what mass density value has been reported for COC(=O)c1ccccc1 [methyl benzoate] ?
Found: 1083.92

Lookup: I am curious: what mass density value has been reported for CCOC(=O)CC(C)C [ethyl 3-methylbutanoate] ?
Found: 859.78

Lookup: I am curious: what mass density value has been reported for CCOC(=O)CC(C)=O [ethyl 3-oxobutanoate] ?
Found: 1023.45

Lookup: I am curious: what mass density value has been reported for CCOC(=O)c1ccccc1O [ethyl 2-hydroxybenzoate] ?
Found: 1125

Lookup: I am curious: what mass density value has been reported for CC(=O)OCc1ccccc1 [benzyl ethanoate] ?
Found: 1050.75

Lookup: I am curious: what mass density value has been reported for CCC(=O)OCc1ccccc1 [benzyl propanoate] ?
Found: 1027.6

###

- assay summary: refractive index (Na D-line) (dimensionless); xn = mol fraction of the nth substance listed
- settings: 298.18 K; 100.5 kPa; Liquid; Standard Abbe refractometry; x1 = 0.65
experimental readout: refractive index

Lookup: I am curious: what refractive index value has been reported for CC(=O)OCc1ccccc1 [benzyl ethanoate] + CCO ?
Found: 1.47531

Lookup: I am curious: what refractive index value has been reported for CCOC(=O)c1ccccc1O [ethyl 2-hydroxybenzoate] + CCO ?
Found: 1.49304

Lookup: I am curious: what refractive index value has been reported for CCOC(=O)CC(C)=O [ethyl 3-oxobutanoate] + CCO ?
Found: 1.4056

Lookup: I am curious: what refractive index value has been reported for COC(=O)c1ccccc1 [methyl benzoate] + CCO ?
Found: 1.48487

Lookup: I am curious: what refractive index value has been reported for CCOC(=O)CC(C)C [ethyl 3-methylbutanoate] + CCO ?
Found: 1.38795

Lookup: I am curious: what refractive index value has been reported for CCC(=O)OCc1ccccc1 [benzyl propanoate] + CCO ?
Found: 1.47352
